Entries and their Log KL values follow.
system tested: Melatonin receptor (Homo sapiens, UniProt P48039+P49286)
assay remarks: Biphasic (low affinity) inhibition of melatonin receptor of ovine pars tuberalis membrane
condition notes: Ovis aries; target entry is the homologue from another species
The reply should be a number, written without any unit.

item smiles: C/C=C/C(=O)NCCc1cccc2ccc(OC)cc12
Log KL: -7.15
//
item smiles: CCCCCC(=O)NCCc1cccc2ccc(OC)cc12
Log KL: -5.69
//
item smiles: COc1ccc2[nH]cc(CCNC(=O)C3CCC3)c2c1
Log KL: -6.94
//
item smiles: COc1ccc2c(CCNC(=O)C3CC3)cccc2c1
Log KL: -6.76
//
item smiles: COc1ccc2cccc(CCNC(=O)CI)c2c1
Log KL: -8.93
//
item smiles: COc1ccc2cccc(CCNC(=O)C3CCC3)c2c1
Log KL: -6.91
//
item smiles: CCCC(=O)NCCc1c[nH]c2cc(F)c(OC)cc12
Log KL: -10.1
//
item smiles: CCC(=O)NCCc1cccc2ccc(OC)cc12
Log KL: -8.71
//
item smiles: CCCCC(=O)NCCc1cccc2ccc(OC)cc12
Log KL: -7.03
//
item smiles: COc1ccc2cccc(CCNC(=O)C(C)C)c2c1
Log KL: -7.9

# next compound below
q: Endpoint output: Log KL of COc1ccc2cccc(CCNC=O)c2c1 . Value?
a: -8.11
